Experiment: Genotoxicity in Salmonella typhimurium TA100 assessed as number of revertant at 75 ug by AMES test (reference value: 64.3 to 130.7)
Format: toxicity, Salmonella enterica subsp. enterica serovar Typhimurium
Details: in vivo; dose 75 µg
Record form. Attribute: Activity. Fill in for each entry.
Answers are plain numbers.

Cc1cc(C)c(C)c(OCCCN2CCC(O)CC2)c1 = 52.3
Cc1cc(C)c(C)c(OCCN[C@@H]2CCCC[C@H]2O)c1 (racemic) = 105
Cc1ccc(OCCCN2CCCC(O)C2)c(C)c1 (racemic) = 69.5
Cc1cc(C)c(C)c(OCCOCCN[C@H]2CCCC[C@@H]2O)c1.Cl (racemic) = 80.7

compound Cc1cccc(C)c1OCCOCCNC1CCC(O)CC1.Cl (stereo not given) , Activity observed: 312.3

---

Experiment: Genotoxicity in Salmonella typhimurium TA98 assessed as mutagenic index at 10 ug by AMES test
Format: toxicity, Salmonella enterica subsp. enterica serovar Typhimurium
Details: in vivo; dose 10 µg
reportedProperty: Activity_index
Answers are plain numbers.

Below, 3 molecules whose answers are already recorded.
Cc1cc(C)c(C)c(OCCOCCN[C@H]2CCCC[C@@H]2O)c1.Cl (racemic) = 0.9
Cc1cc(C)c(C)c(OCCN[C@@H]2CCCC[C@H]2O)c1 (racemic) = 0.9
Cc1cc(C)c(C)c(OCCCN2CCC(O)CC2)c1 = 1.4

// each molecule listed below needs its Activity_index
1. Cc1cccc(C)c1OCCOCCNC1CCC(O)CC1.Cl (stereo not given)
2. Cc1ccc(OCCCN2CCCC(O)C2)c(C)c1 (racemic)

Resp:
1: 1; 2: 0.4

---

Experiment: Genotoxicity in Salmonella typhimurium TA98 assessed as mutagenic index at 750 ug by AMES test
Type: toxicity, Salmonella enterica subsp. enterica serovar Typhimurium
Conditions: in vivo; dose 750 µg
reportedProperty: Activity_index
One number for each entry.

Below, 3 compounds whose answers are already recorded.
Cc1cccc(C)c1OCCOCCNC1CCC(O)CC1.Cl (centres undefined) = 0.4
Cc1cc(C)c(C)c(OCCCN2CCC(O)CC2)c1 = 43.7
Cc1cc(C)c(C)c(OCCN[C@@H]2CCCC[C@H]2O)c1 (racemic) = 1.2

Okay, now this compound:
compound Cc1ccc(OCCCN2CCCC(O)C2)c(C)c1 (racemic) , Activity_index observed: 1

---

Experiment: in vitro
Details: mouse, microsomes
Description: Metabolic stability in mouse microsome assessed as half life
Record form. Attribute: half-life. Fill in for each entry.
Answers are plain numbers, in min.

Below, 5 molecules whose answers are already recorded.
Cc1ccc(OCCCN2CCCC(O)C2)c(C)c1 (racemic) = 28.6
Cc1cc(C)c(C)c(OCCN[C@@H]2CCCC[C@H]2O)c1 (racemic) = 27.2
Cc1cc(C)c(OCCCN2CCCC(O)C2)c(C)c1.Cl (racemic) = 38.9
Cc1cc(C)c(C)c(OCCOCCN[C@H]2CCCC[C@@H]2O)c1.Cl (racemic) = 37.2
Cc1cc(C)c(OCCCN[C@@H]2CCCC[C@H]2O)c(C)c1 (relative stereo) = 27.2

Okay, now this molecule:
molecule Cc1cccc(C)c1OCCOCCNC1CCC(O)CC1.Cl (stereo unspecified) , half-life observed: 87.7

---

Assay: Protection index, ratio of TD50 for toxicity in ip dosed mouse to ED50 for anticonvulsant activity in ip dosed mouse
Assay type: organism-based
Details: in vivo, read-out: PI
Record form. Attribute: selectivity ratio. Fill in for each entry.
Give bare numbers.

Cc1cc(C)c(C)c(OCCCN2CCC(O)CC2)c1 = 3.58
Cc1ccc(OCCCCN[C@H](C)CO)c(C)c1 = 2.59
O=C1NC(=O)C(c2ccccc2)(c2ccccc2)N1 = 8.56
Cc1ccc(OCCCN2CCCC(O)C2)c(C)c1 (racemic) = 3.09
Cc1cc(C)c(C)c(OCCOCCN[C@H]2CCCC[C@@H]2O)c1.Cl (racemic) = 2.91

// each compound listed below needs its selectivity ratio
1. Cc1cccc(C)c1OCCOCCNC1CCC(O)CC1.Cl (stereo unspecified)
2. Cc1ccc(OCCOCCN[C@H](C)CO)c(C)c1

Resp:
1. 3.99
2. 3.4

---

Test: Genotoxicity in Salmonella typhimurium TA100 assessed as mutagenic index at 10 ug by AMES test
Type: toxicity, Salmonella enterica subsp. enterica serovar Typhimurium
Details: in vivo; dose 10 µg
Record form. Attribute: Activity_index. Fill in for each entry.
One number for each entry.

// each compound listed below needs its Activity_index
1. Cc1cc(C)c(C)c(OCCCN2CCC(O)CC2)c1
2. Cc1cccc(C)c1OCCOCCNC1CCC(O)CC1.Cl (stereo not given)
3. Cc1cc(C)c(C)c(OCCOCCN[C@H]2CCCC[C@@H]2O)c1.Cl (racemic)
4. Cc1ccc(OCCCN2CCCC(O)C2)c(C)c1 (racemic)
5. Cc1cc(C)c(C)c(OCCN[C@@H]2CCCC[C@H]2O)c1 (racemic)

Resp:
1. 1
2. 3.1
3. 1.2
4. 1.2
5. 2.6

---

Target: 5-hydroxytryptamine receptor 1A (Homo sapiens, UniProt P08908)
Sequence (P08908 whole entry): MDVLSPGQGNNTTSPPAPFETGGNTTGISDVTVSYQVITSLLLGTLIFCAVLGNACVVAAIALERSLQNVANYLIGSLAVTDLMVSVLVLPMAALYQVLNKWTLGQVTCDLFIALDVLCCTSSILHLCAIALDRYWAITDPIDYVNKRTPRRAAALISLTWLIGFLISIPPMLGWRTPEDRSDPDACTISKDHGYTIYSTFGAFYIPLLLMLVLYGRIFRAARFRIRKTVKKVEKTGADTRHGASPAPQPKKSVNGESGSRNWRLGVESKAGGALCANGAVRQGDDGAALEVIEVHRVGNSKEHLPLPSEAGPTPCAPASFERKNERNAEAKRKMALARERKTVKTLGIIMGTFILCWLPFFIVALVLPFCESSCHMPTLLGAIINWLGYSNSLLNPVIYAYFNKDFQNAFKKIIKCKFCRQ
reportedProperty: Ki
Remember to put the unit after the number in your answer.

Below, 3 molecules whose answers are already recorded.
Cc1ccc(OCCOCCN[C@H](C)CO)c(C)c1 = 4.8 µM
Cc1cc(C)c(C)c(OCCOCCN[C@H]2CCCC[C@@H]2O)c1.Cl (racemic) = 1.2 µM
Cc1cc(C)c(C)c(OCCN[C@@H]2CCCC[C@H]2O)c1 (racemic) = 1.01 µM

// each molecule listed below needs its Ki
1. Cc1cc(C)c(OCCCN2CCCC(O)C2)c(C)c1.Cl (racemic)
2. Cc1cc(C)c(OCCCN[C@@H]2CCCC[C@H]2O)c(C)c1 (relative stereo)

Resp:
["3.39 µM", "2.37 µM"]

---

Record form. Attribute: Activity. Fill in for each entry.
Test: Genotoxicity in Salmonella typhimurium TA98 assessed as number of revertant at 750 ug by AMES test (reference value: 8 to 8.3)
Format: toxicity, Salmonella enterica subsp. enterica serovar Typhimurium
Conditions: in vivo; dose 750 µg
Give bare numbers.

Cc1ccc(OCCCN2CCCC(O)C2)c(C)c1 (racemic) = 3.3
Cc1cccc(C)c1OCCOCCNC1CCC(O)CC1.Cl (centres undefined) = 3
Cc1cc(C)c(C)c(OCCN[C@@H]2CCCC[C@H]2O)c1 (racemic) = 9.3

compound Cc1cc(C)c(C)c(OCCCN2CCC(O)CC2)c1 , Activity observed: 364.3

---

Test: in vitro
Conditions: mouse, microsomes
Description: Metabolic stability in mouse microsome assessed as intrinsic clearance
reportedProperty: microsomal CLint (µL/min/mg)
Give bare numbers, in µL/min/mg.

Cc1cc(C)c(C)c(OCCOCCN[C@H]2CCCC[C@@H]2O)c1.Cl (racemic) = 93
Cc1cc(C)c(OCCCN[C@@H]2CCCC[C@H]2O)c(C)c1 (relative stereo) = 128
Cc1ccc(OCCCN2CCCC(O)C2)c(C)c1 (racemic) = 60.5
Cc1cc(C)c(OCCCN2CCCC(O)C2)c(C)c1.Cl (racemic) = 44.5
Cc1cccc(C)c1OCCOCCNC1CCC(O)CC1.Cl (stereo unspecified) = 19.8

compound Cc1cc(C)c(C)c(OCCN[C@@H]2CCCC[C@H]2O)c1 (racemic) , microsomal CLint observed: 128

---

Test: Genotoxicity in Salmonella typhimurium TA98 assessed as number of revertant at 500 ug by AMES test (reference value: 8 to 8.3)
Format: toxicity, Salmonella enterica subsp. enterica serovar Typhimurium
Conditions: in vivo; dose 500 µg
reportedProperty: Activity
One number for each entry.

Below, 4 molecules whose answers are already recorded.
Cc1cc(C)c(C)c(OCCN[C@@H]2CCCC[C@H]2O)c1 (racemic) = 8.7
Cc1ccc(OCCCN2CCCC(O)C2)c(C)c1 (racemic) = 4.7
Cc1cc(C)c(C)c(OCCOCCN[C@H]2CCCC[C@@H]2O)c1.Cl (racemic) = 9
Cc1cc(C)c(C)c(OCCCN2CCC(O)CC2)c1 = 6.7

molecule Cc1cccc(C)c1OCCOCCNC1CCC(O)CC1.Cl (stereo not given) , Activity observed: 6.7

---

Test: Genotoxicity in Salmonella typhimurium TA98 assessed as mutagenic index at 200 ug by AMES test
Format: toxicity, Salmonella enterica subsp. enterica serovar Typhimurium
Conditions: in vivo; dose 200 µg
Record form. Attribute: Activity_index. Fill in for each entry.
Give bare numbers.

Below, 3 compounds whose answers are already recorded.
Cc1cc(C)c(C)c(OCCN[C@@H]2CCCC[C@H]2O)c1 (racemic) = 0.8
Cc1cccc(C)c1OCCOCCNC1CCC(O)CC1.Cl (stereo not given) = 1.2
Cc1cc(C)c(C)c(OCCCN2CCC(O)CC2)c1 = 1.3

// each compound listed below needs its Activity_index
1. Cc1cc(C)c(C)c(OCCOCCN[C@H]2CCCC[C@@H]2O)c1.Cl (racemic)
2. Cc1ccc(OCCCN2CCCC(O)C2)c(C)c1 (racemic)

Resp:
1: 1.4; 2: 1.2
